biological target: Brd4 bromodomain 1 (Homo sapiens, UniProt O60885); construct: made in house; host or cells: E. coli BL21(DE3); test: Inhibition of binding of tetra-acetylated histone H4 to Brd4 bromodomain 1 (TR-FRET); conditions: His-tagged Brd4 bromodomain 1 200 nM, tetra-acetylated histone H4 peptide 25-50 nM, 2 hours room temperature
MEASURED ATTRIBUTE: FRET activity (<50 uM)

Take a look at these entries with their results.
>  <COMPOUND STRUCTURE STRING>
COc1cc(OC)c2c(=O)[nH]c(-c3ccc(N4CCN(C(=O)C(C)C)CC4)cc3)nc2c1

>  <FRET activity (<50 uM)>
Active

$$$$
>  <COMPOUND STRUCTURE STRING>
COc1cc(OC)c2c(=O)[nH]c(-c3ccc(N4CCC(NS(C)(=O)=O)CC4)cc3)nc2c1

>  <FRET activity (<50 uM)>
Active

$$$$
>  <COMPOUND STRUCTURE STRING>
COc1cc(OC)c2c(=O)[nH]c(-c3ccc(N4CCN(C(=O)c5ccc(F)cc5)CC4)cc3)nc2c1

>  <FRET activity (<50 uM)>
Inactive

$$$$
>  <COMPOUND STRUCTURE STRING>
CCN(C(C)=O)C1CCN(c2ccc(-c3nc4cc(OC)cc(OC)c4c(=O)[nH]3)cc2)CC1

>  <FRET activity (<50 uM)>
Active

$$$$
>  <COMPOUND STRUCTURE STRING>
COc1cc(OC)c2c(=O)[nH]c(-c3ccc(N4CCN(Cc5ccccc5)CC4)cc3)nc2c1

>  <FRET activity (<50 uM)>
Inactive

$$$$
>  <COMPOUND STRUCTURE STRING>
COc1cc(OC)c2c(=O)[nH]c(-c3cc(C)c(OCCN4CCN(C)CC4)c(C)c3)nc2c1

>  <FRET activity (<50 uM)>
Active

$$$$
>  <COMPOUND STRUCTURE STRING>
COc1cc(OCCOc2ccccc2)cc2nc(-c3cc(C)nc(C)c3)[nH]c(=O)c12

>  <FRET activity (<50 uM)>
Active

$$$$
>  <COMPOUND STRUCTURE STRING>
COc1cc(OC)c2c(=O)[nH]c(-c3ccc(C4CCNCC4)cc3)nc2c1

>  <FRET activity (<50 uM)>
Active

$$$$

Record FRET activity (<50 uM) for all entries; do not skip any.
1. CC(C)N1CCN(c2ccc(-c3nc4cccc(Cl)c4c(=O)[nH]3)cc2)CC1
2. CCCCCC(=O)N1CCN(c2ccc(-c3nc4cc(OC)cc(OC)c4c(=O)[nH]3)cc2)CC1
3. COc1cc(OC)c2c(=O)[nH]c(-c3ccc(OC4CCN(C(=O)N(C)C)CC4)cc3)nc2c1

[A]
["Inactive", "Inactive", "Active"]

Each of the following entries comes with a recorded value; kindly state FRET activity (<50 uM) for each.
1. COc1cc(OC)c2c(=O)[nH]c(-c3ccc(N4CCC(=O)CC4)cc3)nc2n1
2. COc1cc(OC)c2c(=O)[nH]c(-c3cc(C)c(OCCN4C(=O)CCC4=O)c(C)c3)nc2c1
3. COc1cc(OC)c2c(=O)[nH]c(-c3cc(C)c(OCCN4CC(NC(C)=O)C4)c(C)c3)nc2c1

[A]
["Inactive", "Active", "Active"]

Please give FRET activity (<50 uM) for each item listed below.
1. COc1cc(OC)c2c(=O)[nH]c(-c3ccc(N4CCCN(C)CC4)cc3)nc2c1
2. COc1cc(OCCNC(C)=O)cc(-c2nc3cc(OC)cc(OC)c3c(=O)[nH]2)c1

[A]
1. Active
2. Inactive

----------
target: Brd4 bromodomain 1 (Homo sapiens, UniProt O60885); construct: made in house; host or cells: E. coli BL21(DE3); experiment: Inhibition of binding of tetra-acetylated histone H4 to Brd4 bromodomain 1 (TR-FRET); conditions: His-tagged Brd4 bromodomain 1 200 nM, tetra-acetylated histone H4 peptide 25-50 nM, 2 hours room temperature
MEASURED ATTRIBUTE: FRET activity (<50 uM)

// known answers, use as guide
>  <COMPOUND STRUCTURE STRING>
COCCOc1cc(OC)cc2nc(-c3cc(C)nc(C)c3)[nH]c(=O)c12

>  <EXPERIMENTAL VALUE>
Active

$$$$
>  <COMPOUND STRUCTURE STRING>
COc1cccc2nc(-c3cc(C)c(OCCN4CCCC4)c(C)c3)[nH]c(=O)c12

>  <EXPERIMENTAL VALUE>
Active

$$$$
>  <COMPOUND STRUCTURE STRING>
COc1cc(OC)c2c(=O)[nH]c(-c3ccc(N4CCC(NC(=O)c5ccccc5)CC4)cc3)nc2c1

>  <EXPERIMENTAL VALUE>
Inactive

$$$$
>  <COMPOUND STRUCTURE STRING>
O=c1[nH]c(-c2ccc(N3CCN(CC(F)(F)F)CC3)cc2)nc2ccccc12

>  <EXPERIMENTAL VALUE>
Inactive

$$$$
>  <COMPOUND STRUCTURE STRING>
COCCOc1cc(OCCN2CCCC2)c2c(=O)[nH]c(-c3cc(C)nc(C)c3)nc2c1

>  <EXPERIMENTAL VALUE>
Active

$$$$

[Q] Read off the recorded FRET activity (<50 uM) for COc1cc(OC)c2c(=O)[nH]c(-c3ccc(CN4C(=O)CNC4=O)cc3)nc2c1
[A] Inactive

----------
MEASURED ATTRIBUTE: melting point

Consider the worked cases shown below.
>  <COMPOUND STRUCTURE STRING>
COc1cc(OC)c2c(=O)[nH]c(-c3cc(C)c(OCCCCN4CCCC4)c(C)c3)nc2c1

>  <melting point>
180 to 181 °C

$$$$
>  <COMPOUND STRUCTURE STRING>
Cc1cc(-c2nc3cc(Cl)cc(Cl)c3c(=O)[nH]2)cc(C)c1OCCN1CCCC1

>  <melting point>
209 to 210 °C

$$$$
>  <COMPOUND STRUCTURE STRING>
COc1cc(OCCN2CCCC2)cc2nc(-c3cc(C)nc(C)c3)[nH]c(=O)c12

>  <melting point>
227 to 229 °C

$$$$
>  <COMPOUND STRUCTURE STRING>
COCCOc1cc(OCCOC)c2c(=O)[nH]c(-c3cc(C)nc(C)c3)nc2c1

>  <melting point>
149.8 to 151.4 °C

$$$$
>  <COMPOUND STRUCTURE STRING>
COc1cc(OCCNC(C)=O)cc(-c2nc3cc(OC)cc(OC)c3c(=O)[nH]2)c1

>  <melting point>
264 to 265 °C

$$$$
>  <COMPOUND STRUCTURE STRING>
COc1cc(OC)c2c(=O)[nH]c(-c3ccc(CN4C(=O)CNC4=O)cc3)nc2c1

>  <melting point>
317 to 318 °C

$$$$

For each of the items listed, what is its melting point?
1. COCCOc1cc(OC)c2c(=O)[nH]c(-c3ccc(N4C[C@@H](C)N(C(C)=O)[C@@H](C)C4)cc3)nc2c1
2. Cc1cc(-c2nc3cc(OCCOC(C)C)cc(OCCOC(C)C)c3c(=O)[nH]2)cc(C)n1

[A]
225 to 227 °C
124 to 125 °C

----------
target: Brd4 bromodomain 1 (Homo sapiens, UniProt O60885); construct: made in house; host or cells: E. coli BL21(DE3); assay: Inhibition of binding of tetra-acetylated histone H4 to Brd4 bromodomain 1 (TR-FRET); conditions: His-tagged Brd4 bromodomain 1 200 nM, tetra-acetylated histone H4 peptide 25-50 nM, 2 hours room temperature
MEASURED ATTRIBUTE: FRET activity (<50 uM)

Solved cases (4 shown):
>  <COMPOUND>
COc1cc(OC)c2c(=O)[nH]c(-c3cc(C)cc(OCCO)c3)nc2c1 [Example 113]

>  <FRET activity (<50 uM)>
Active

$$$$
>  <COMPOUND>
COc1cc(OC)c2c(=O)[nH]c(-c3ccc(Nc4cccnc4)cc3)nc2c1 [Example 62]

>  <FRET activity (<50 uM)>
Active

$$$$
>  <COMPOUND>
COc1cc(OC)c2c(=O)[nH]c(-c3ccc(N4CCN(C(=O)c5ccccc5)CC4)cc3)nc2c1 [Example 18]

>  <FRET activity (<50 uM)>
Inactive

$$$$
>  <COMPOUND>
COCCOc1cc(OCCOC)c2c(=O)[nH]c(-c3cc(C)nc(C)c3)nc2c1 [Example 101]

>  <FRET activity (<50 uM)>
Active

$$$$

Quick batch: FRET activity (<50 uM) for everything below.
1. COc1cc(OC)c2c(=O)[nH]c(-c3ccc(N4CCN(Cc5ccc(F)cc5)CC4)cc3)nc2c1 [Example 29]
2. COc1cc(OC)c2c(=O)[nH]c(-c3cc(C)c(OCCN4CCC4)c(C)c3)nc2c1 [Example 86]

[A]
["Inactive", "Active"]

Origin of measurements: patent US20130281399A1
